Please go through the items and note down their absorbance at 490 nm.
# target or system: M1
# assay procedure: ELISA on coated antigen, column M1
The answer should be a number; do not append a unit.

Looking for the measured absorbance at 490 nm of PDL1-31D9 (antibody, V domains shown, Only FR/CDR pieces are tied to the clone) VH: QMQLVESGGGLVQPGGSLRLSCSASGFTFSSYVMHWVRQAPGKGLEYVSAISSNGGSTYYADSVKGRFTISRDNSKNTLYLQMSSLRSEDTAVYYCAREHFSTYSYGVDVWGPGTTVTVSS VL: DIVMTQTPLSLPVTPGEPASISCRSSQSLLDSDDGNTYLDWYLQKPGQSPQLLIYMISFRASGVPDRFSGSGSGTDFTLKISRVEAEDSGIYYCMQRVEFPYTFGQGTKLEIK , can you help?
1.6

Looking for the measured absorbance at 490 nm of PDL1-23E5 (antibody, V domains shown, Only FR/CDR pieces are tied to the clone) VH: QVQLVQSGAEVVKPGSSVKVSCKASGDTFSRYAISWVRQAPGQAPEWMGRIIPVLGAANYARKFQDRVTITADISTTTAFMELTSLRSEDTAVYYCARSLSGYSLGAFDVWGPGTLVTVSS VL: QLVLTQPPSVSGAPGQSVSISCIGSNSNIGTPYDVHWYQQIPGEAPKLLIYGSTNRPSGVPDRFSGSRSGSSASLDITGLQADDEAYYYCQSYDRSLGVSDVVFGGGTKLTVL , can you help?
2.4

Looking for the measured absorbance at 490 nm of PDL1-23E10 (scFv, V domains shown) VH: QMQLVESGAEVKKPGSSVKVSCKVSGENFRSHAISWVRQAPGQGLEWMGRIIPIVGLADYPQKFQGRVTISADESTGTAYMDLSSLRSEDTAVYYCVTGRPPWHWGQGILITVSS VL: QLVLTQPPSVSGAPGQRVTISCTGSSSNIGAGYDVHWYQQLPGTAPKLLIYSNRNRPSGVPDRFSGSKSGTSASLAITGLQAEDEADYYCQSYDSSLSGPNYVFGTGTKVTVL , can you help?
2.1

Looking for the measured absorbance at 490 nm of PDL1-11A7 (antibody, V domains shown, Only FR/CDR pieces are tied to the clone) VH: QVQLVQSGAEVKKPGASVKVSCKVSGYTLTELSMHWVRQAPGKGLEWMGGFDPEDGETIYAQKFQGRVTMTEDTSTDTAYMELSSLRSEDTAVYYCARDPWGGYYGMDVWGQGTTVTVSS VL: DIQMTQSPSSVSASVGDRVTINCRASQGIRTWLAWYQQKPGKAPKLLIYAASNLQSGVPSRFSGSGSGTDFTLTIASLQPEDFATYYCQQANSFPLTFGGGTKVEIK , can you help?
2.5

Looking for the measured absorbance at 490 nm of PDL1-31E6 (antibody, V domains shown, Only FR/CDR pieces are tied to the clone) VH: QVQLVQSGAEVKKPGSSVKVSCKASGGTFSSYAISWVRQAPGQGLEWMGGIIPIFGTANYAQKFQGRVTITADESTSTAYMELSSLRSEDTAVYYCARGGRSFGAFDSWGQGALVTVSS VL: DIQMTQSPATLSLSPGERATLSCTASQSISSYLAWYQQKPGQAPRLLIYDSSNRATGIPARFSGSGSGTAFTLTISSLEPEDFAVYFCQQRGQWPLTFGGGTKVDIK , can you help?
2.1

Ref: patent US20190322750A1
